study system: MAST1, Q9Y2H9
Sequence (Q9Y2H9 962-1065): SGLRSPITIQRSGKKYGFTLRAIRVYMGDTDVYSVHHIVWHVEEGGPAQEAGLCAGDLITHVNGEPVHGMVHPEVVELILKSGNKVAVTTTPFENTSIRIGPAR
protocol summary: holdup assay
Parameters: key: below the threshold = too weak to quantify, mostly under pKd 3.1 to 4
run conditions: plain residues with an end cap or a label only (N-terminal biotin on a linker: ado-ado)
This section presents binders with their documented pKd values.
Just the number, please, no unit after it.

Below, 3 binders whose answers are already recorded.
binder	pKd
SSALYGESDL [ACTN2, P35609]	4.18
RRRESYSTTV [EVI5, O60447]	4.82
PAPSSGKDYV [CLDN1, O95832]	3.51

Okay, now this binder:
Need pKd of QGLAERISVL [PRKD2, Q9BZL6] , thanks. 4.52
